# test_system: GATD3A (Homo sapiens, UniProt P0DPI2)
# Construct: incubated at increasing concentrations with a mixture of lysates of MV4–11 and SW620 cells; endogenous in cells
# Sequence (P0DPI2 42-268): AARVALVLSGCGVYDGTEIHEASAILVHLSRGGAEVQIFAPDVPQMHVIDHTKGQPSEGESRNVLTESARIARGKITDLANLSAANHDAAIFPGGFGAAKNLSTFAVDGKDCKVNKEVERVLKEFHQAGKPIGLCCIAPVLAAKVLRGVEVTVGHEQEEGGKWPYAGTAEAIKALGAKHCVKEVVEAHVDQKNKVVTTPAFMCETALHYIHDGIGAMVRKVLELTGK
# assay_details: chemoproteomic competition assay (MV4-11/SW620 lysate, iA/iC/iQ beads, MS readout)
# experimental_context: nine-dose competition assay; range stated for ALDH2 and GATD3A together
pEC50: −log10 of the molar value.
assay_endpoint: pEC50

Inquiry: Please look at this compound and report its pEC50: CC(C)Cc1ccc(C(C)C(=O)NO)cc1 (stereo not shown)
Reply text: 4.52 to 4.64

###

# test_system: casein kinase 2 (CK2) complex proteins (CSNK2A1/3, CSNK2A2, CSNK2B, EIF3J)
# assay_details: Kinobead competition assay
# Format: binding, human
# experimental_context: dose-dependent competition
pEC50: −log10 of the molar value.
assay_endpoint: pEC50

Inquiry: Please look at this molecule and report its pEC50: `Cl.O=C(NO)c1ccc(-c2nc3ccccc3c3[nH]c4ccccc4c23)cc1`
Reply text: 5.70 to 6.00

###

# test_system: MBLAC2 (Homo sapiens, UniProt Q68D91)
# Construct: incubated at increasing concentrations with a mixture of lysates of MV4–11 and SW620 cells; endogenous in cells
# Sequence (Q68D91 1-279): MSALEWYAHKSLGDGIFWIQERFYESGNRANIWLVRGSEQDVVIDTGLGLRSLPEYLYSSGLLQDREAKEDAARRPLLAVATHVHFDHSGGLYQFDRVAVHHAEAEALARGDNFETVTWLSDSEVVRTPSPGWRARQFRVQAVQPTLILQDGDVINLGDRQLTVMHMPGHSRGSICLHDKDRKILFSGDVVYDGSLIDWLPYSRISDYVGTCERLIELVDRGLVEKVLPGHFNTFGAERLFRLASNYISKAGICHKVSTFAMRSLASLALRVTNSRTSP
# assay_details: chemoproteomic competition assay (MV4-11/SW620 lysate, iA/iC/iQ beads, MS readout)
# experimental_context: nine-dose competition assay; read-out: KDapp MBLAC2
assay_endpoint: Kd (nM)
Hi! Could you send only the number? It should be in nM, unit omitted.

Inquiry: Please look at this compound and report its Kd: `O=C(NO)c1ccc(CN2CCCc3cc(Cl)ccc32)cc1`
Reply text: 75

###

# test_system: recombinant NME1–4
# assay_details: nucleoside diphosphate kinase activity assay (ATP production from ADP and GTP, Kinase-GLO)
# experimental_context: ADP (150 μM) and GTP (150 μM); range over all four enzymes; read-out: EC50 inhibition of NME1–4
pEC50: −log10 of the molar value.
assay_endpoint: pEC50

Inquiry: Give reported pEC50 for `Cl.O=C(NO)c1ccc(-c2nc3ccccc3c3[nH]c4ccccc4c23)cc1` (recombinant NME1–4)
Reply text: 5.30 to 5.70

###

Readings of pIC50 for the listed molecules
# test_system: recombinant HINT1 (hHint1) (Homo sapiens)
# Sequence (P49773 whole entry): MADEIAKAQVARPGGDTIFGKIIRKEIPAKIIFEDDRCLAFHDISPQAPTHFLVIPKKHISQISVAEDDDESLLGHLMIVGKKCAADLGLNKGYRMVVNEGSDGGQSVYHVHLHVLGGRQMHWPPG
# assay_details: HINT1 enzyme activity assay (TrpA hydrolysis, fluorescence)
# experimental_context: hHint1 0.002 µM, TrpA 0.5 µM, 25 °C
Scale for pIC50: -log10 of concentration given in mol/L; no unit attached.

Inquiry: Please look at this molecule and report its pIC50: O=C(NO)c1ccc(-c2nc3ccccc3n3cccc23)cc1 [KV-24]
Reply text: 4.91

Inquiry: Please look at this molecule and report its pIC50: O=C(NO)c1ccc(-c2nc3ccccc3c3ccccc23)cc1 [KV-30]
Reply text: 4.90

Inquiry: Please look at this molecule and report its pIC50: Nc1nc2c(ncn2[C@@H]2O[C@H](COC(=O)NCCc3c[nH]c4ccccc34)[C@@H](O)[C@H]2O)c(=O)[nH]1 [TrpGC, reference compound]
Reply text: 5.04

###

# Test system: compound-binding proteins such as HDACs, MBLAC2, ISOC1/2, ALDH2, and GATD3A
# assay_details: chemoproteomic competition assay, proteome-wide target binding profile
# Set-up: species or system human
# experimental_context: dose-dependent competition
assay_endpoint: targets / off-targets bound

O=C(NO)c1ccc(-c2nc3ccccc3n3cccc23)cc1 [KV-24]
bound to HINT1 and NME4
O=C(NO)c1ccc(-c2nc3ccccc3c3ccccc23)cc1 [KV-30]
bound to HINT1 and NME4
Cl.O=C(NO)c1ccc(-c2nc3ccccc3c3[nH]c4ccccc4c23)cc1 [KV-50]
bound to HINT1 and NME4

###

# test_system: ISOC1 (Homo sapiens)
# Construct: incubated at increasing concentrations with a mixture of lysates of MV4–11 and SW620 cells; endogenous in cells
# Sequence (Q96CN7 whole entry): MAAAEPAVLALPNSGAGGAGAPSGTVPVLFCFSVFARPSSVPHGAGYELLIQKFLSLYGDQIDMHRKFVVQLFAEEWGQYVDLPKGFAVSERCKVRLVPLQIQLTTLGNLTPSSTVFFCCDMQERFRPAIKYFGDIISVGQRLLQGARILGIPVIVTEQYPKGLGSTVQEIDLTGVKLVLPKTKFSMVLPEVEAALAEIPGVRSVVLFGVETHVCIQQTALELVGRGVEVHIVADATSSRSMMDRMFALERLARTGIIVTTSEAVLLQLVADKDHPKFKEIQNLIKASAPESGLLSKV
# assay_details: chemoproteomic competition assay (MV4-11/SW620 lysate, iA/iC/iQ beads, MS readout)
# experimental_context: nine-dose competition assay
assay_endpoint: EC50
Report field: quantity (unit follows the number).

Inquiry: Please look at this molecule and report its EC50: COc1ccc(N(C)c2nc(C)nc3ccccc23)cc1OCCCC(=O)NO [SKLB-23bb]
Reply text: 5.6 µM

###

# test_system: MBLAC2 (Homo sapiens, UniProt Q68D91)
# Construct: incubated at increasing concentrations with a mixture of lysates of MV4–11 and SW620 cells; endogenous in cells
# assay_details: chemoproteomic competition assay (MV4-11/SW620 lysate, iA/iC/iQ beads, MS readout)
# experimental_context: focused library profiling
# Procedure: MBLAC2 is a metalloenzyme predicted to harbor one or two Zn^2+ ions in its active site. […] In this assay, compounds of interest are incubated at increasing concentrations with a mixture of lysates of MV4–11 and SW620 cells. […] LC-MS/MS. The different sample types were measured with different LC-MS/MS settings. […]
Readings of EC50 for the listed compounds
Hi! Could you send only the number? It should be in µM, unit omitted.

Some solved entries appear below for comparison.
O=C(NO)c1ccc(CN2c3ccccc3S(=O)(=O)c3ccccc32)cc1 [KV-65]
0.037
O=C(NO)c1ccc(CN2c3ccccc3Sc3ccc(C(F)(F)F)cc32)cc1 [KV-79]
0.025

Inquiry: Please look at this compound and report its EC50: O=C(NO)c1ccc(CN2c3ccccc3Sc3ccccc32)cc1 [KV-46]
Reply text: 0.083
